B1: library; numbered along this chain (parent)
chain: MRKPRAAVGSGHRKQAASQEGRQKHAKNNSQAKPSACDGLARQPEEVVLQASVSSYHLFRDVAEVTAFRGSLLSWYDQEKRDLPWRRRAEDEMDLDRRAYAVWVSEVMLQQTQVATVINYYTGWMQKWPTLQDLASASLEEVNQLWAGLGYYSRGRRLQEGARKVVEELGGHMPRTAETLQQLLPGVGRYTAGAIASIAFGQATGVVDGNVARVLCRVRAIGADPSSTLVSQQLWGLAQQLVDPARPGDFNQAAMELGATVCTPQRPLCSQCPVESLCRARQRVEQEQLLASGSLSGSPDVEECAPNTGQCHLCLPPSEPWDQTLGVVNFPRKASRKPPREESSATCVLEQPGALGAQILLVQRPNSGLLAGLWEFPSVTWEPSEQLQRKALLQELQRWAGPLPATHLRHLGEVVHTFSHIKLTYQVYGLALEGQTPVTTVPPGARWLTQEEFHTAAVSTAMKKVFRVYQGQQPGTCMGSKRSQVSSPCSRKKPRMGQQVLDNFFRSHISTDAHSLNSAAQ

- Variants of: B1
- procedureDetails: 8OG:A repair function score (normalized; synonymous = 0, nonsense = -1) (normalized log-likelihood score); higher = more repair activity (WT-like);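 further: cells sorted at 72 h after reporter transfection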
- conditionSummary: with 8OG:A DNA repair reporter (GFP) in HEK-293 MUTYH KO cells
Decision: 8OG:A repair function score >= -0.2 yields rule met, all other cases yield rule not met.

{"columns": ["variantDesignation", "assignedCategory"],
 "data": [
  ["I359Q", "rule not met"],
  ["P317A", "rule met"],
  ["V117G", "rule not met"],
  ["S54W", "rule not met"],
  ["E141K", "rule met"],
  ["L423A", "rule met"],
  ["V48L", "rule met"],
  ["R340C", "rule met"],
  ["W235I", "rule not met"],
  ["D322M", "rule met"],
  ["L432H", "rule not met"],
  ["K463L", "rule met"],
  ["R283Q", "rule met"],
  ["A137N", "rule not met"],
  ["T204E", "rule met"],
  ["S507C", "rule met"],
  ["V107R", "rule not met"],
  ["R467I", "rule met"],
  ["A400S", "rule met"],
  ["G39R", "rule met"],
  ["P404K", "rule met"],
  ["Y425Q", "rule not met"],
  ["R398S", "rule not met"],
  ["Q181L", "rule met"],
  ["P377T", "rule not met"],
  ["V142I", "rule not met"],
  ["P174K", "rule not met"],
  ["E160T", "rule met"],
  ["D243K", "rule not met"],
  ["L134T", "rule not met"],
  ["S52M", "rule met"],
  ["T511P", "rule met"],
  ["V211R", "rule not met"],
  ["K333R", "rule met"],
  ["P317N", "rule met"],
  ["Q397D", "rule met"],
  ["S105H", "rule not met"],
  ["C477I", "rule met"],
  ["A259C", "rule not met"],
  ["A89H", "rule met"],
  ["Q351M", "rule met"],
  ["D224E", "rule not met"],
  ["L411N", "rule not met"],
  ["G170D", "rule met"],
  ["A194C", "rule not met"]
]}
